- Test system: Pseudomonas aeruginosa PAO1
- test.protocol: Inhibition of multidrug resistance efflux pump in Pseudomonas aeruginosa PAO1 assessed as dose required to restore 2 ug/ml doxycycline-induced inhibition of visible growth after 18 hrs by standard broth dilution method
metric: inhibition

>>> print(df.to_string())
                           structure_smiles      metric                 result
0  COc1c(Br)cc(/C=C/C(=O)NCCCN2CCOCC2)cc1Br  inhibition  Dose-dependent effect
1  COc1c(Br)cc(/C=C/C(=O)NCCCOCCCCOCCCN)cc1Br  inhibition  Dose-dependent effect
2    COc1c(Br)cc(/C=C/C(=O)NCCNCCNCCN)cc1Br  inhibition  Dose-dependent effect
